assay: yeast display, Sf9 membrane polyspecificity reagent, FACS + sequencing; frameworks hold sequencing errors
assay.endpoint: polyreactivity (PSR sort gate)

{"item.sequence": "QVQLVESGGGLVQAGGSLRLSCAASGSIFGFNAMGWYRQAPGTERELVAAITWSGVSTYYADSVKGRFTISRDNAKNTVYLQMNSLKPEDTAVYYCAADVIIDWWYEMDYWGQGTQVTVSS", "assay.endpoint": "polyreactivity (PSR sort gate)", "experimental.result": "high polyreactivity"}
{"item.sequence": "QVQLVESGGGLVQAGGSLRLSCAASGRIFRYYAMGWYRQAPGKERELDAGITGRGGRTYYADSVKGRFTISRDNAKNTVYLQMNSLKPEDTAVYYCAATVSPSYDYWGQGTQVTVSS", "assay.endpoint": "polyreactivity (PSR sort gate)", "experimental.result": "high polyreactivity"}
{"item.sequence": "QVQLVESGGGLVQAGGSLRLSSAASGFTFVGYAMGWSRQAPGKERELVAAITGRGGTTYYADSVKGRFTISRDNAKNTVYLQMNSLKPEDTSVYYCAADTPSFWTEVDSWGQGTQVTLSS", "assay.endpoint": "polyreactivity (PSR sort gate)", "experimental.result": "low polyreactivity"}
{"item.sequence": "QVQLVESGGGLVQAGGSLRLSCAASGRIFVKYAMGWYRQAPGKEREMVAAISASGGGTYYADSVKGRFTISRDNAKNTVYLQMNSLNPVDTAVYYFNADFRYPGQVPSYVTYDYWGQGTQVNVSS", "assay.endpoint": "polyreactivity (PSR sort gate)", "experimental.result": "low polyreactivity"}
{"item.sequence": "QVQLVESGGGLVQAGGSLRLSCAASGSIFPRNVMGWYRQEPGKERQLVAVITARGGSTYYADSVKGRFTISRDNAKNTVYLQMNSLKPEDTAVYYCATPYSRRKIPPNYDYWGLGTQVTVSS", "assay.endpoint": "polyreactivity (PSR sort gate)", "experimental.result": "high polyreactivity"}
{"item.sequence": "QVQLVESGGGLVQAGGSLRLSCAASGSIFYPYAMGWYRQAPGKERELVAAIRNGGSTYYADSVKGRFTISRDNAKNTVYLQMNSLKPEDTAVYYCAASVRRRHPFEYWGQGTQVTVSS", "assay.endpoint": "polyreactivity (PSR sort gate)", "experimental.result": "high polyreactivity"}
{"item.sequence": "QVQLVESGGGLVQAGGSLRLSCAASGFTIYYYAMGWYRQAPGKERELVASISWSGGSTNYADSVKGRFTISRDNAKNTVYLQMNRLKPEDTAVYYCNTAGPYRRDYWGQGTQVTVSS", "assay.endpoint": "polyreactivity (PSR sort gate)", "experimental.result": "high polyreactivity"}
{"item.sequence": "QVQLVESGGGLVQAGGSLRLSSAASGSIFQDYAMGWYRQEPGKERELVAGINWRGDDTYADSVKGRFTISRDNAKNTVYLQMNSLKPEDTAVYYCNAEDWGYGYDYWGQGTQVTVSS", "assay.endpoint": "polyreactivity (PSR sort gate)", "experimental.result": "low polyreactivity"}
{"item.sequence": "QVQLVESGGGLVQAGGSLRLSCAASGFIFAWYAMGWYRQAPGKERELVARISRGGSTYYADSVKGRFTISRDNAKNTVYLHMNSLKPEYTAVYYCTAGAAYTYTRYDYWGQGTQVTVSS", "assay.endpoint": "polyreactivity (PSR sort gate)", "experimental.result": "high polyreactivity"}
{"item.sequence": "QDQLVDSGGGLVQAGGSLRLSCAASGIIFYRYAMGWYRQAPGKERELVATITASGGRTYYADSVKGRFTISRDNAKNTVYLQMNSLKPEDTAVYYCAAVSSYRLYSDYGYWRQGTQVTVSS", "assay.endpoint": "polyreactivity (PSR sort gate)", "experimental.result": "high polyreactivity"}
{"item.sequence": "QVQLVESGGGLVQAGGSLRLSCAASGSTFYVNAMGCYKQAPGKEWELVAAIDGCDTYYADSVKGRFTISRDNAKKTVNLQMNSLKPDDTEVYYCAAESLPEISVGLGYWGQGTQVTVSS", "assay.endpoint": "polyreactivity (PSR sort gate)", "experimental.result": "low polyreactivity"}

----------
experiment: yeast display, Sf9 membrane polyspecificity reagent, FACS + sequencing; frameworks hold sequencing errors

{"item.sequence": "QVQLVESGGGLVQAGGILRLSCAASGIIFSEYAMGWYRQAPGKERELVAAISKSSGSTRYADSVKGRFTISRDNAKNTVYLQMNSLKPEDTAVYYCAREYRWRYGYDYWGQGTQVTVSS", "polyreactivity (PSR sort gate)": "high polyreactivity"}
{"item.sequence": "QVQLVESGGGLVQAGGSLRLSCAASGFIIPDYAMGWYRQAPVKERELVAAITSSGGRTYYADSVKVRFTISRDNAKNTVYLQMNSLIPEDTAVYYCAARTNSPRGYGSDYWGQGTQVTVSS", "polyreactivity (PSR sort gate)": "high polyreactivity"}
{"item.sequence": "QVQLVESGGGLVQAGGSLRLSCAASGSTFYRYAMGWYRQAPGKERELVATIRSSGDSTNYADSVKGRFTISRDNAKNTVYLQMNSLKPEDTAVYYCAKYGKYTWRQGGYWGQGTQVTVSS", "polyreactivity (PSR sort gate)": "high polyreactivity"}
{"item.sequence": "QVRLVESGGGLVQAGGSLRLSCAAYGSTFKTYAMGWYRPAPGKERELVAAISAGGGSTYYADSVKGRFTISRDNAKNTVYLQMNSLKPEDTAVYYCAAAYIYAGWDYEYWGQGTQVTVSS", "polyreactivity (PSR sort gate)": "low polyreactivity"}
{"item.sequence": "QVQLVESGGGLVQAGGSLRLSCAASGTIFQENAMGWYRQAPGKERELVAAITGSGDSTYYADSVKGRFTISRDNAKNTVYLQMNSLKPEDTAVYYCAASWHTPTVYDEYYYWGQGTQVTVSS", "polyreactivity (PSR sort gate)": "low polyreactivity"}

----------
assay: yeast display, Sf9 membrane polyspecificity reagent, FACS + sequencing; frameworks hold sequencing errors
assay.endpoint: polyreactivity (PSR sort gate)

{"item.sequence": "QVQLVESGGGLVQAGGSLRLSCAASGSTFNRNAMGWYRQAPGKERELVADISRGGRTYYSDSVKGRFTITRDNAKNTVYLQMNSLKPEDTAVFYCATVVSRGKQPFDMDYWGQGTQVTVSS", "assay.endpoint": "polyreactivity (PSR sort gate)", "experimental.result": "low polyreactivity"}
{"item.sequence": "QVQLVESGGGLVQAGGSLRLSCAASGSIFRYNALGWYRQAPGKEREFVAAITRSGGSTYADSVKGRFTISRDNAKNTVYLQMNSLKPEDTAVYYCAATFKWYSHTKPRFDYWGQGTQVTVSS", "assay.endpoint": "polyreactivity (PSR sort gate)", "experimental.result": "low polyreactivity"}
{"item.sequence": "QVQLVESGGGLVHAGGSLRLSCAASGYTFRYYAKGWYRQAPGKERELVAAINSGDITNYADSVKGRFTITRDNAKTTVYLQMNSLKPEDTAVYFCARSTFSLYDYWGQGTQVTVSS", "assay.endpoint": "polyreactivity (PSR sort gate)", "experimental.result": "low polyreactivity"}

----------
assay: yeast display, Sf9 membrane polyspecificity reagent, FACS + sequencing; frameworks hold sequencing errors

{"item.sequence": "QVQLVESGGGLVQAGGSLRLSCAASGSIFYWYAMGWYRQAPGKERELVAAISSGGSTNYADSVKGRFTISRDNAKNTVYLQMNSLKPEDTAVYYCNADIRSFYWEYYTGLDSWGQGTQVTVSS", "polyreactivity (PSR sort gate)": "low polyreactivity"}
{"item.sequence": "QVQLVESGGGLVQAGGSLRLSCAASGFTFWRYAMGWYRQAPGKERELVAAISRNGGRTYYADSVKGRFTISRDNAKNTVYLQMNSLKPEDTAVYYCAADSDIEYEYWGQGTQVTVSS", "polyreactivity (PSR sort gate)": "high polyreactivity"}
{"item.sequence": "QVQLVESGGGLVQAGGSLRLSCAASGRIFYDNAMGWYSQAPGKERELVAAIRIGGSTNYADSVKGRFTISRDNAKNTVYLLMNSLKPEDTAVYYCNRSDNPDSYYPDSVWGDSWGQGTQVTVSS", "polyreactivity (PSR sort gate)": "low polyreactivity"}
{"item.sequence": "QVQLVESGGGLVQAGGSLRLSCAASGRTFWYYAMGWYREAPGKERELVAAITRGGRTNYADSVKGRFTISRDNAKNTVYLQMKSLKPEDTAVYYCAADYRYPAHSYGYWGQGTLVTVSS", "polyreactivity (PSR sort gate)": "high polyreactivity"}
{"item.sequence": "QVQLVESGGGLVQAGGSLRLRGAASGNTIRYYAMGWYRQAPGKERELVAAINSRGGTTSYADSVKGRFTISRDNAKNTVYLQMNSLKPEDTAVYYCNKYIRYPFKRYGYWGQGTQVTVSS", "polyreactivity (PSR sort gate)": "high polyreactivity"}

----------
experiment: yeast display, Sf9 membrane polyspecificity reagent, FACS + sequencing; frameworks hold sequencing errors

{"item.sequence": "QVQLVESGGGLVQAGGSLRLSCAASGRIFRVNGMGWDRQAPGKERELVAAIRRSGGSTYYADSVKGRFTISRDNAKNTVYLQMNSLKPEDTAVYYCAAPVRQSSYTRYDSWGQGTQVTVSS", "polyreactivity (PSR sort gate)": "high polyreactivity"}
{"item.sequence": "QVQLVESGGGLVQAGGSLRLSCAASGRIFSYYAMGWYRQAPGKERELVASISRGSSTYYADSVKGRFTISRDNAKNTVYLQMNSLKPEDTAVYYCARQWLGYPYTTYTGSPVEGYGYWGQGTQVTVSS", "polyreactivity (PSR sort gate)": "high polyreactivity"}
{"item.sequence": "QVQLVESGGGLVQAGGSLRLSCAASGRIITEYVTGCYTQAPGKERELDAAAITRGGSTNYADSVKGRFTLSRDNAKNTVYLQKNSLIPEDTAVYHCNKDDWPVSRQLYTGKHDSWGQGTQVTVSS", "polyreactivity (PSR sort gate)": "low polyreactivity"}
{"item.sequence": "QVQLVESGGGLVQAGGSLRLSCAASGSTFYNYAMGWCRLAPGKERELVAATSSGGSTNYADSVKGRFTISRDNAKNTVFLQMISLKPEDNAVYYCARRHRVYPSRIGHDYWGQGTQVTVSS", "polyreactivity (PSR sort gate)": "low polyreactivity"}
{"item.sequence": "QVQLVESGGGLVQAGGSLRISCAASGSIFASKTMGWYRQAPGKERELVAGITKIGSSTYYADSVKGRFTISRDNAKNTVYLQMNSLKPEETAVYYCNAYLSPKQPLSPPEPTFEGGYWGQGTQVTVSS", "polyreactivity (PSR sort gate)": "low polyreactivity"}
{"item.sequence": "QVQLVESGGGLVQAGGSLRLSCAACGFSFWRNAMGRTRRAPGKDRELVAAISASGGSTYYADSVKGRFTISRDNATNTVFLQRNSLKPEDTAVYYCAADTQGFYRYDYWGQGTQVTVSS", "polyreactivity (PSR sort gate)": "low polyreactivity"}
{"item.sequence": "PVQLVESGGGLVQAGGSLRLSCAASGSIFPSYAMGWYRQAPGKERELVATIGRGGTTNYADSVKGRFTISRDNAKNTVYLQKNSLKPEDTGVYYCNAERIWRYKYGYDYWGQGTQVTVSS", "polyreactivity (PSR sort gate)": "high polyreactivity"}
{"item.sequence": "QVQLVESGGGLVQAGGSLRLSCAASGLTFKRYVMGWYRQAPGKERELVAAITVSGGNTYYADSVKGRFTISRDNAKNTVYLQMNSLKPEDTAVYYCNADAGAIYYRRYHFYYWGQGTQVTVSS", "polyreactivity (PSR sort gate)": "low polyreactivity"}
{"item.sequence": "QVQLVESGGGLVQAGGSLRLSCAASGSTFVLYAMGWYIQAPGKERELVAAIDSSGGSTYYADSVKGRFTISRDNAKNTVYVQMNSLKPEDTAVYYCAARFKGLLGYWGQGTQVTVSS", "polyreactivity (PSR sort gate)": "high polyreactivity"}
{"item.sequence": "RVQLVESGGGLVQAGGSLRLSCAASGRIFKYYAMGWYRPAPGTERELVASITIGSTTYADSVKGRFTISRDNAMNTVYLHMNSLKPEDTAVYYCNRVYRQRLGRDYWGQGTQVTVSS", "polyreactivity (PSR sort gate)": "high polyreactivity"}
{"item.sequence": "QVQLVESGGGLVQAVGSLRLSCAASGRTFDFYAMGWYREAPGKEREFVAAISSRGGSTYYADTVKGRFTISRDNAKNTVYLQMNSLKPEDTAVYYCAKDLGYRGRYNYWGQGTQVTVSS", "polyreactivity (PSR sort gate)": "low polyreactivity"}

Values from the nanobody polyreactivity screen of Harvey et al. (2022)
